Experiment: NCI Yeast Anticancer Drug Screen. Data for the rad50 strain (AID 155)
Conditions: S. cerevisiae rad50 strain growth inhibition; at 50.0 µM
Method: Growth inhibition of yeast strains with defined genetic alterations is measured as a screen for potential anti-cancer activity. Selected strains with alterations in DNA damage repair or cell cycle control were exposed to compounds and growth inhibition was measured relative to vehicle treated controls. The strain used in this assay is rad50
Compounds without any hit were thinned out: in the full panel of roughly 79,000, 15% have a hit. Calls of active or inactive are those of the source. No stated cut-off is given here; in the data, active means growth inhibition above about 70%; inactive means the rest.
Classes used: active, inactive

molecule=CCOC(=O)c1ccc(-c2cccs2)n1C label=inactive
molecule=CN(C)CCCSc1c2ccccc2nc2cc(NCC(=O)Nc3ccccc3-c3ccccc3NC(=O)CNc3ccc4c(SCCCN(C)C)c5ccccc5nc4c3)ccc12 label=active
molecule=COc1ncnc2nc(SC)[nH]c12 label=active
molecule=CCc1cc(/C=C\c2ccnc3ccccc23)ccc1N(C)C label=active
molecule=CC(=O)/C(=C\c1ccc(Cl)cc1Cl)C(=O)CCN(C)C label=active
molecule=O=C1c2ccc3c4ccccc4n(Cc4ccccc4)c3c2C(=O)N1c1ccccc1 label=active
molecule=C[N+](C)([O-])CCC=C1c2ccccc2CCc2ccccc21 label=inactive
molecule=c1ccc(-c2ccc(-c3cnc(-c4ccc(-c5ccccc5)cc4)o3)cc2)cc1 label=active
molecule="CC(NC(=O)OCc1ccccc1)C(=O)NC(C(=O)O)C(C)C (stereo not drawn)" label=inactive
molecule="c1ccc(CC(Nc2cccnc2)c2ccccc2)cc1 (stereo not drawn)" label=active
molecule=Cc1nc2c(nc1C)C(=O)C1=C(C2=O)C2C=CC1CC2 label=active
molecule=Cc1ccc(NN(C)c2ccc(C)cc2)cc1 label=inactive
molecule=O=C(/C=C\C(=O)Nc1cccc(N(Cc2ccccc2)Cc2ccccc2)c1)Nc1cccc(N(Cc2ccccc2)Cc2ccccc2)c1 label=inactive
molecule="NC(CSC1(c2ccc(Cl)cc2)c2ccccc2-c2ccccc21)C(=O)O (stereo not drawn)" label=inactive
molecule="NC(CCCCCC(N)C(=O)O)C(=O)O (stereo not drawn)" label=inactive
molecule="OC(CC(O)(C(F)(F)Cl)C(F)(F)Cl)c1ccccc1 (stereo not drawn)" label=active
molecule=CC(C)OP(=O)(OC(C)C)/C(I)=N/Nc1ccc([N+](=O)[O-])cc1 label=inactive
molecule="COc1ccc(/C(=N/NC(N)=O)C(c2ccc(OC)cc2)C2C(=O)Oc3ccccc32)cc1 (stereo not drawn)" label=active
molecule=Cc1cc2ccc(N)nc2[nH]c1=O label=inactive
molecule="O=C1OC2(CCCC2)OC1c1ccccc1 (stereo not drawn)" label=inactive
molecule=CC1=CC(C)(C)Nc2cc(N)ccc21 label=inactive
molecule=C=Cc1cc(N=Nc2ccc([N+](=O)[O-])cc2)ccc1N(C)C label=inactive
molecule=COC(=O)CCN1c2ccccc2Sc2ccccc21 label=inactive
